system: 843126-344-R-J1-PDC complex spheroid viability; test: Anticancer human tumor 843126-344-R-J1-PDC patient-derived melanoma cell line growth inhibition [POLQ]; conditions: curve of first compound; second compound 10 µM
pIC50: −log10 of the molar value.
property-name: pIC50

molecule	target-of-assay	property-name	endpoint-result
CCCS(=O)(=O)Nc1ccc(F)c(C(=O)c2c[nH]c3ncc(-c4ccc(Cl)cc4)cc23)c1F + COC1C(OC(N)=O)C(O)C(Oc2ccc3c(O)c(NC(=O)c4ccc(O)c(CC=C(C)C)c4)c(=O)oc3c2C)OC1(C)C	843126-344-R-J1-PDC complex spheroid viability	pIC50	< 5.00
Nc1ccn(C2OC(CO)C(O)C2(F)F)c(=O)n1 (stereo not drawn) + Nc1ccc(C#CCN(C(=O)Cc2ncc(C(F)(F)F)cc2C(F)(F)F)c2ccc(F)cc2)nn1	843126-344-R-J1-PDC complex spheroid viability	pIC50	> 7.50
C=CC(=O)N1CCN(c2nc(=O)n(-c3c(C)ccnc3C(C)C)c3nc(-c4c(O)cccc4F)c(F)cc23)C(C)C1 (stereo not drawn) + Cc1cccc(N(C)C(=O)C2C(O)CCN2c2nc(C)cc(C(F)(F)F)c2C#N)c1	843126-344-R-J1-PDC complex spheroid viability	pIC50	< 5.00

###

tested on: 843126-344-R-J1-PDC complex spheroid viability; test: Anticancer human tumor 843126-344-R-J1-PDC cell line growth inhibition [POLQ]; conditions: second compound 0.0316 µM; first compound 0.1 µM; stronger effect = lower value;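 for viability, T/C: spheroids exposed to drugs for seven days before readout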

molecule	viability, T/C (%)
CCc1cc2c(N3CCc4c(cc(Cn5ccnc5)cc4-c4cn(C)nc4C(F)(F)F)C3=O)ccnc2c(OC)n1 + Cc1cccc(N(C)C(=O)C2C(O)CCN2c2nc(C)cc(C(F)(F)F)c2C#N)c1	79.8
COc1cccc(OCCCN)c1-c1cc(Nc2cnc(C#N)cn2)n[nH]1 + Cc1cccc(N(C)C(=O)C2C(O)CCN2c2nc(C)cc(C(F)(F)F)c2C#N)c1	48.8
CC[C@@]1(O)C(=O)OCc2c1cc1n(c2=O)Cc2cc3c(CN(C)C)c(O)ccc3nc2-1 + COC1C(OC(N)=O)C(O)C(Oc2ccc3c(O)c(NC(=O)c4ccc(O)c(CC=C(C)C)c4)c(=O)oc3c2C)OC1(C)C	52.5
CC1COCCN1c1cc(C2(O)CC3CCC(C2)O3)c2cnn(-c3ccn[nH]3)c2n1 (centres undefined) + Cc1cccc(N(C)C(=O)C2C(O)CCN2c2nc(C)cc(C(F)(F)F)c2C#N)c1	78.6

###

pIC50 reference
system: 843126-344-R-J1-PDC complex spheroid viability; assay: Anticancer human tumor 843126-344-R-J1-PDC cell line growth inhibition [POLQ]; settings: curve of first compound; second compound 10 µM
pIC50: −log10 of the molar value.

compound	target-of-assay	pIC50
CCc1cc2c(N3CCc4c(cc(Cn5ccnc5)cc4-c4cn(C)nc4C(F)(F)F)C3=O)cc(C)nc2c(OC)n1 + COC1C(OC(N)=O)C(O)C(Oc2ccc3c(O)c(NC(=O)c4ccc(O)c(CC=C(C)C)c4)c(=O)oc3c2C)OC1(C)C	843126-344-R-J1-PDC complex spheroid viability	< 5.00
CNCc1ccc(-c2[nH]c3cc(F)cc4c3c2CCNC4=O)cc1 + Nc1ccc(C#CCN(C(=O)Cc2ncc(C(F)(F)F)cc2C(F)(F)F)c2ccc(F)cc2)nn1	843126-344-R-J1-PDC complex spheroid viability	< 5.00
C=CCn1c(=O)c2cnc(Nc3ccc(N4CCN(C)CC4)cc3)nc2n1-c1cccc(C(C)(C)O)n1 + Cc1cccc(N(C)C(=O)C2C(O)CCN2c2nc(C)cc(C(F)(F)F)c2C#N)c1	843126-344-R-J1-PDC complex spheroid viability	< 6.00
Nc1ccn(C2OC(CO)C(O)C2(F)F)c(=O)n1 (stereo unspecified) + Cc1cccc(N(C)C(=O)C2C(O)CCN2c2nc(C)cc(C(F)(F)F)c2C#N)c1	843126-344-R-J1-PDC complex spheroid viability	> 7.50
O=C(Nc1ccc(O)c(NS(=O)(=O)c2ccc(F)cc2)c1)c1ccc(-c2ccccc2)cc1 + Cc1cccc(N(C)C(=O)C2C(O)CCN2c2nc(C)cc(C(F)(F)F)c2C#N)c1	843126-344-R-J1-PDC complex spheroid viability	< 5.00
COc1ccc([C@@H](O)c2cc(-c3ncnc4cc(N5CCOCC5)ccc34)c(F)cc2Cl)nn1 + Nc1ccc(C#CCN(C(=O)Cc2ncc(C(F)(F)F)cc2C(F)(F)F)c2ccc(F)cc2)nn1	843126-344-R-J1-PDC complex spheroid viability	< 5.00
